Recorded pIC50 for the following molecules
# Experimental protocol: Inhibition of peptide deformylase using N-formylmethionine-alanine-serineas substrate incubated for 10 min before substrate addition by PDF-FDH coupled assay
Lab note: write the figure by itself, no unit.

Consider the molecule `Cc1nc(NC(=O)[C@@H]2CCCN2C(=O)N(CCC2CCCC2)CC(=O)NO)sc1C` . State its measured pIC50.
8.7

Give the reported value of pIC50 for this record: `CC(C)CCN(CC(=O)NO)C(=O)N1CCC[C@H]1C(=O)Nc1nccs1`
6.49

Give me measured pIC50, please, for this molecule: `CC(C)CCNC(=O)[C@@H]1CCCN1C(=O)N(CCC(C)C)CC(=O)NO`
7.92

Look up and state reported pIC50 for `CCCC[C@@H](C(=O)N1CCC[C@H]1C(=O)N1CCN(c2ncccn2)CC1)[C@H](O)C(=O)NO`
8.52

* * *

# Experimental protocol: Inhibition of peptide deformylase using N-formylmethionine-alanine-serineas substrate incubated for 10 min before substrate addition by PDF-FDH coupled assay
Observable: pIC50
Answer with a bare number; do not write a unit.

Solved entries (count: 4):
Provide measured pIC50 value, entry: `CCCC[C@@H](C(=O)N1CCC[C@H]1C(=O)N1CCC1)[C@H](O)C(=O)NO`
7.77

Kindly indicate its recorded pIC50. Item: `CCCCCNC(=O)[C@@H]1CCCN1C(=O)[C@H](CCCC)[C@H](F)C(=O)NO`
7.89

# return recorded pIC50 for input `CCCC[C@@H](C(=O)N1CCC[C@H]1C(=O)N1CCCCC1)[C@H](O)C(=O)NO`
7.89

Give pIC50 for the following compound: `CC(C)CCN(CC(=O)NO)C(=O)N1CCC[C@H]1C(=O)Nc1nnc(-c2ccccc2)s1`
7.01

// next entry
Return reported pIC50. Input compound: `CCCC[C@@H](C(=O)N1CCC[C@H]1C(=O)N1CCC1)[C@H](F)C(=O)NO`
7.54

* * *

# Experimental protocol: Inhibition of peptide deformylase using N-formylmethionine-alanine-serineas substrate incubated for 10 min before substrate addition by PDF-FDH coupled assay
Catalogue of pIC50 readings, one per entry.
Returns: the value as a bare number; no unit string appended.

Some compounds with known pIC50 results, for comparison:
Look up pIC50 of `CCCC[C@@H](C(=O)N1CCC[C@H]1C(=O)Nc1nc(C)c(C)s1)[C@H](F)C(=O)NO` and report it.
8.7

Kindly indicate its recorded pIC50. Item: `O=C(CN(CCC1CCCC1)C(=O)N1CCC[C@H]1C(=O)Nc1cccc(O)c1)NO`
7.77

Output measured pIC50 for this item: `CCCC[C@@H](C(=O)N1CCC[C@H]1C(=O)NCCC)[C@H](F)C(=O)NO`
7.89

Identify measured pIC50 corresponding to `Cc1nc(NC(=O)[C@@H]2CCCN2C(=O)N(CCC(C)C)CC(=O)NO)sc1C`
8.52

Note pIC50 for the compound shown: `O=C(CN(CCC1CCCC1)C(=O)N1CCC[C@H]1C(=O)Nc1cnccn1)NO`
7.27

Note: attention shifts to another entry.
Give reported pIC50 value for `CCCC[C@@H](C(=O)N1CCC[C@H]1C(=O)NC)[C@H](O)C(=O)NO`
8

* * *

# Experimental protocol: Inhibition of peptide deformylase using N-formylmethionine-alanine-serineas substrate incubated for 10 min before substrate addition by PDF-FDH coupled assay
Observable: pIC50
Please respond with just the number, no unit label.

Note down pIC50 recorded for `CCCC[C@@H](C(=O)N1CCC[C@H]1C(=O)OC(C)(C)C)[C@@H](OC)C(=O)NO`
7.3

Output pIC50 of `CCCC[C@@H](C(=O)N1CCC[C@H]1C(=O)Nc1ccc(Cl)c(Cl)c1)[C@H](F)C(=O)NO`
9

Value source: ChEMBL document CHEMBL3045733
